The values you see were collected from patent US9770026B2.

test system: carmine spider mite; assay: bioactivity test against carmine spider mite, airbrush spray; format: in vivo; details: Tetranychus cinnabarinus, 72 h, 600 mg/L; contrastive test; read-out: Insecticidal activity against carmine spider mite (% )
endpoint name: pest or weed control at 600 µg/mL (%)
Kindly answer with a numeric value in %, unit omitted.

Consider the following illustrative entries.
Cc1ncnc(NCc2ccc(Oc3ccc(C(F)(F)F)cc3)cc2)c1Cl [CK53, reference compound]; 100
Cc1ncnc(NC(=O)Cc2ccc(Oc3ccc(C(F)(F)F)cn3)cc2)c1Cl [CK56, reference compound]; 32
CCc1ncnc(OCCc2ccc(Oc3ccccc3)cc2)c1Cl [CK13, reference compound]; 100

Ask: What does the record list as pest or weed control at 600 µg/mL for CCc1ncnc(NCc2ccc(Oc3nc(Cl)c(Cl)cc3Cl)cc2)c1Cl [CK36, reference compound] ?
Reply: 0

Ask: Repeat with FC(F)(F)c1cccnc1Oc1ccc(CCNc2cc(Cl)ncn2)cc1 [CK80, reference compound]
Reply: 6

Ask: Repeat with CCc1ncnc(NCCc2ccc(Oc3ccc(C(F)(F)F)cn3)cc2)c1Cl
Reply: 100

Ask: Repeat with COC(=O)c1nc(Cl)nc(NC(C)c2ccc(Oc3ncc(C(F)(F)F)cc3Cl)cc2)c1Cl (centres unmarked) [CK34, reference compound]
Reply: 0

Ask: Repeat with CCOC(=O)c1ccc(Oc2ccc(CCNc3cc(Cl)ncn3)cc2)nc1 [CK74, reference compound]
Reply: 0

---

system: carmine spider mite; test: bioactivity test against carmine spider mite, airbrush spray; format: in vivo; conditions: Tetranychus cinnabarinus, 72 h, 100 mg/L; contrastive test; read-out: Insecticidal activity against carmine spider mite (% )
endpoint name: pest or weed control at 100 µg/mL (%)
Kindly answer with a numeric value in %, unit omitted.

CCc1ncnc(NC(C)c2ccc(Oc3ncc(C(F)(F)F)cc3Cl)cc2)c1Cl (stereo not shown) [CK39, reference compound]; 37
CCc1ncnc(NCCc2ccc(Oc3ccc(Cl)cc3)cc2)c1Cl; 100

Ask: What does the record list as pest or weed control at 100 µg/mL for CCc1ncnc(NCCc2ccc(Oc3ccc(C(F)(F)F)cn3)cc2)c1Cl ?
Reply: 100

Ask: Repeat with Cc1ncnc(NC(C)c2ccc(Oc3ccc(C(F)(F)F)cc3)cc2)c1Cl (stereo not shown) [CK46, reference compound]
Reply: 63

---

Test system: carmine spider mite
Assay: bioactivity test against carmine spider mite, airbrush spray
Assay type: in vivo
Settings: 2.5 mg/L
Procedure: Compounds were dissolved in mixed solvent (acetone:methanol=1:1), and diluted to required concentration with water containing 0.1% of tween 80. […] The method: Broadbean shoots with two true leaves in pot were taken, the healthy adults of carmine spider mite were inoculated to the leaves. The adults were counted and then sprayed with airbrush at the pressure of 0.7 kg/cm^2 and at dose of 0.5 ml. […] Scores were conducted and mortalities were calculated after 72 hrs.
endpoint name: Insecticidal activity against carmine spider mite (% ) (%)
Kindly answer with a numeric value in %, unit omitted.

Cc1ncnc(NCCc2ccc(Oc3ccc(C#N)cc3F)cc2)c1Cl [II-204]; 60
CCc1ncnc(NCCc2ccc(Oc3ccc(C#N)cn3)cc2)c1Cl [Compound I-255]; 72
Cc1ncnc(NCCc2ccc(Oc3ccc(C(F)(F)F)cn3)cc2)c1Cl [Compound I-6734]; 51
Cc1ncnc(NCCc2ccc(Oc3ccc(C(F)(F)F)cn3)cc2)c1Cl [Compound I-6729]; 64
CCc1ncnc(NCCc2ccc(Oc3ccc(C(F)(F)F)cn3)cc2)c1Cl [Compound I-6758]; 79

Ask: What does the record list as Insecticidal activity against carmine spider mite (% ) for CCc1ncnc(NCCc2ccc(Oc3ccc(C(F)(F)F)cn3)cc2)c1Cl.Cl [Compound I-6739] ?
Reply: 76

---

tested on: cucumber downy mildew; test: protectant activity in vivo against cucumber downy mildew; settings: Cucumis sativus, 168 h, read-out: control effect against cucumber downy mildew (%), 400 mg/L; protectant activity
endpoint name: pest or weed control at 400 µg/mL (%)
Kindly answer with a numeric value in %, unit omitted.

Cc1ncnc(NCCc2ccc(Oc3ccc(C(F)(F)F)cn3)cc2)c1Cl; 100

Ask: What does the record list as pest or weed control at 400 µg/mL for CCc1ncnc(NC(=O)Cc2ccc(Oc3ccc(C(F)(F)F)cn3)cc2)c1Cl [CK55, reference compound] ?
Reply: 100

Ask: Repeat with CCC(Nc1nc(Cl)nc(C(=O)OC)c1Cl)c1ccc(Oc2ncc(C(F)(F)F)cc2Cl)cc1 (stereo not shown) [CK35, reference compound]
Reply: 60

Ask: Repeat with Cc1ncnc(NC(C)c2ccc(Oc3ncc(C(F)(F)F)cc3Cl)cc2)c1Cl (stereo not shown) [CK27, reference compound]
Reply: 100

---

tested on: carmine spider mite; assay: bioactivity test against carmine spider mite, airbrush spray; assay type: in vivo; details: 600 mg/L; contrastive test
endpoint name: Insecticidal activity against carmine spider mite (% ) (%)
Kindly answer with a numeric value in %, unit omitted.

Consider the following illustrative entries.
CCc1ncnc(NCCc2ccc(Oc3ccc(C(F)(F)F)cn3)cc2)c1Cl [Compound I-6758]; 100
CCc1ncnc(NC(C)c2ccc(Oc3ccccc3)nc2)c1Cl (stereo not shown) [CK8, reference compound]; 54
CCc1ncnc(NCCc2ccc(Oc3ccc(C(F)(F)F)cn3)cc2)c1Cl [Compound I-6740]; 100

Now examine the next entry.
Ask: What is its Insecticidal activity against carmine spider mite (% ) for carmine spider mite? Entry: CC(Cl)c1ncnc(NCCc2ccc(Oc3ncc(C(F)(F)F)cc3Cl)cc2)c1Cl (stereo not shown) [CK44, reference compound]
Reply: 0

---

# control effect against cucumber downy mildew (%) per entry
test system: cucumber downy mildew; assay: protectant activity in vivo against cucumber downy mildew; settings: 12.5 mg/L; protectant activity
Could you kindly put the unit after your number?

Consider the following illustrative entries.
CCc1ncnc(NCCc2ccc(Oc3ccc(C)cc3)nc2)c1Cl [III-196]; 85%
Cc1nc(Cl)c(Cl)c(NCCc2ccc(Oc3ccc(Cl)cc3)nc2)n1 [III-2527]; 100%
Cc1ncnc(NCCc2ccc(Oc3ccc(Cl)cc3Cl)nc2)c1Cl [III-82]; 98%

Now examine the next entry.
Ask: What does the record list as control effect against cucumber downy mildew (%) for CCc1ncnc(NCCc2ccc(Oc3cc(Cl)ccc3Cl)nc2)c1Cl [III-263] ?
Reply: 98%

---

system: carmine spider mite; test: bioactivity test against carmine spider mite, airbrush spray; type: in vivo; conditions: 600 mg/L; contrastive test
endpoint name: Insecticidal activity against carmine spider mite (% ) (%)
Kindly answer with a numeric value in %, unit omitted.

Consider the following illustrative entries.
CCc1ncnc(NCCc2ccc(Oc3ccc(C(F)(F)F)cn3)cc2)c1Cl [Compound I-254]; 100
CCc1ncnc(NCCc2ccc(Oc3ccc(C(F)(F)F)cn3)cc2)c1Cl [Compound I-6741]; 100
Cc1ncnc(NCCc2ccc(Oc3ccc(C#N)cc3F)cc2)c1Cl [II-204]; 100
Cc1ncnc(NCCc2ccc(Oc3ccc(C(F)(F)F)cn3)cc2)c1Cl [Compound I-6734]; 100
CCc1ncnc(NC(=O)Cc2ccc(Oc3ncc(C(F)(F)F)cc3Cl)cc2)c1Cl [CK16, reference compound]; 0
CCc1ncnc(NCCc2ccc(Oc3ncccc3C(F)(F)F)cc2)c1Cl [Compound I-987]; 100

Ask: What is its Insecticidal activity against carmine spider mite (% ) for carmine spider mite? Entry: FC(F)c1ncnc(NCCc2ccc(Oc3ccc(Cl)cc3)nc2)c1Cl [III-547]
Reply: 100

Ask: Repeat with CCc1ncnc(NCCc2ccc(Oc3ccc(C(F)(F)F)cc3Cl)cc2)c1Cl [II-432]
Reply: 100

Ask: Repeat with CCc1ncnc(NCCc2ccc(Oc3ccc(C(F)(F)F)cn3)cc2)c1Cl [Compound I-6765]
Reply: 100

---

system: Green peach aphids (Myzus Persicae Sulzer); assay: bioactivity test against green peach aphid, airbrush foliar spray; format: in vivo; details: Myzus persicae, foliar, 48 h, 1.25 mg/L; contrastive test; read-out: Insecticidal activity against peach aphid (%)
# pest or weed control at 1.25 µg/mL per entry
Kindly answer with a numeric value in %, unit omitted.

CC(Cl)c1ncnc(NCCc2ccc(Oc3ncc(Cl)cc3Cl)cc2)c1Cl (stereo not shown) [CK45, reference compound]; 0

Ask: What does the record list as pest or weed control at 1.25 µg/mL for CCc1ncnc(NCCc2ccc(Oc3ccc(Cl)cc3)cc2)c1Cl [II-297] ?
Reply: 93

Ask: Repeat with CCc1ncnc(NCCc2ccc(Oc3ccc(C(F)(F)F)cn3)cc2)c1Cl.Cl [Compound I-6739]
Reply: 100

Ask: Repeat with CCc1ncnc(NCCc2ccc(Oc3ccc(Cl)nn3)cc2)c1Cl [Compound I-3309]
Reply: 48

Ask: Repeat with FC(F)c1ncnc(NCCc2ccc(Oc3ccc(Cl)cc3)cc2)c1Cl [II-8915]
Reply: 100

Ask: Repeat with CCc1ncnc(NCCc2ccc(Oc3ccc(C(F)(F)F)cc3)cc2)c1Cl [II-347]
Reply: 81

Ask: Repeat with CCc1ncnc(NCCc2ccc(Oc3ccc(C(F)(F)F)cc3)nc2)c1Cl [III-202]
Reply: 94
